Value source: the supplement of paper PMC12764529

Task for the reader: assign each of the following sequences its reported folding stability dG unfold.
protocol: folding stability dG unfold from chymotrypsin proteolysis; higher = more stable
One number for each entry, in kcal/mol.

[[record]]
residuecodes = "SAGGSAMAIFTVTPPDGVPVTERYSFTTPEEVEAAFAAAKAALPPGTALSVTLVPEEEVAAGRPLLSAGGSA [r15_469_JUSTAS]"
valuemeasured = 1.59

[[record]]
residuecodes = "SAGEKKEKEKEKKKEEEEKKKKEEEKKKEEEKKKEKTLKLEFTLPDGSKIEIEMTVEELKKLGLSPEELSAG [r5_12_TrROS_Hall]"
valuemeasured = 1.29

[[record]]
residuecodes = "SAGGSAGGSAGGGMRFTVEVEPGKVSYSPGIVNKNTPGSSVSEIITVTVVETNPEKLLLSAGGSAGGSAGGS [r10_654_JUSTAS]"
valuemeasured = 0.638


Q: Fill in: folding stability dG unfold of SAKKKVIEVELPPDAKVVTIKLEGKGVEITFVEVDGKLVITVRYKDDPSKTVTIVVKTKEEADALLKALSAG [r14_716_TrROS_Hall] is ___
Ans: 1.85

---

protocol: folding stability dG unfold from chymotrypsin proteolysis; higher = more stable
endpoint: folding stability dG unfold (kcal/mol)
One number for each entry, in kcal/mol.

[[record]]
residuecodes = "SAGGSAGGSAGGTIKKVSDGTIVIPVPNPHQAEKFADTLMEKNNGRDVKIKVFPPEDFGPSAGGSAGGSAGG [r7_645_TrROS]"
valuemeasured = -0.264


Parameters: items (list). Returns: folding stability dG unfold for each item.
1. SAGGSAENDRFIVRVTIQMRNPGDGEKRTHTIPWFEFEPGKPAEEFAIDIADDFGIDNIDVEVYPLSAGGSA [r15_540_TrROS]
2. SAGGRKAKVTVTLPDGTVVELELEFKTEEEFEKAVKEKLEELFGKSIEEVPFVEKKVTVYDPEKGSKSESAG [r5_482_JUSTAS]
3. SAGGSAGGSAPVLVLETESGVKFETLSLGPGPGALALIVTPDKPALALINLDDPNNIKILASAGGSAGGSAG [r3_450_TrMRF]
4. SAGGMVTSTVSVDPSVPKTTTTETFSDGTRVVTTTTELPSGLTVTTTTVTVPPDGSTTATSTTTTIAPSAGG [r13_230_JUSTAS]
5. SAGGVEREPTEEDLLVATAEFLIEVRDPDSDYPLVEPVPITLPFTSLEDLLEELRRLKAEVEEALASSAGGS [r16_624_TrMRF]
6. SAGGSMAPDVKVEVEVFPDGLVLFRLTLPDGRPFLALAEVREDGRVKVVVFDLYPGEKVEFEIPIKSAGGSA [r2_99_TrMRF]
7. SAGGMPREVAKEMIENDKDAKVTFTIYRFPDGPVPSVTVEVIEADVKDPDAFLESVPEGWLVLVEPASAGGS [r16_116_TrMRF]

Ans:
[1.68, 2.18, 0.799, 0.958, 1.63, 3.7, 1.17]

I'm hoping you can list folding stability dG unfold for every sequence here, please.
1. SAGGSAGGSMPVVVEPTTIGDIEVTRVVLPDGTVVVYTKAPTTLKVTYRPLATGEEEEEVFPELSAGGSAGG [r6_555_JUSTAS]
2. SAGGSAGGSAGKKIPFGKNVKILEIEEIDPDIIIIKFENSVFIVRILPNGEVKVIKFDIDSAGGSAGGSAGG [r11_612_TrMRF]
3. SMKVKPGEKIKVTVLALFYDKETKKLYLVKAEVEATVELDEDGNLTVKVEVKKVEVVEEMPLDELKELLKSA [r9_423_TrROS_Hall]
4. SAGGSAGGSAGGLVLTSTSFTSSNTMVVTTTTLTTNADGSLSTTSTTTTTPVPPPKPGLPSAGGSAGGSAGG [r11_728_JUSTAS]

Ans:
[0.829, 2.4, 3.4, 0.509]

For the 2 sequences below, give their folding stability dG unfold values.
1. SAGGKKIKAKVIEIKKIGDKVLVTIERPDGSPDEVLIDKKEVAEKITPESEVEIEVFPDGSVKIKVGSAGGS [r16_2_TrMRF]
2. SAGGMELVGEYEVELPDVPIRFPVYRVPEAGLVVVEAERYDPSTGEWTPLGVVPLPEGSAEEALKALSAGGS [r8_423_TrMRF]

Ans:
[2.03, 0.334]
